meta.source: ChEMBL document CHEMBL1201862

Tested on: HOP-62
assayComment: NCI tumour cell line growth inhibition, 48 h
Calls of active or inactive are those of the source. Rule as the data show it: active = GI50 up to about 1.1 µM and inactive = higher.
API: response.call in active, inactive

As a guide, the following entries are already answered.
>  <molecule>
CCOC(=O)C1=C(O)C(=O)c2ccccc2C1=O

>  <classification>
inactive

$$$$
>  <molecule>
CCn1c2ccc(C(=O)CCCN(C)C)cc2c2cc(C(=O)CCCN(C)C)ccc21

>  <classification>
active

$$$$
>  <molecule>
CCOC(=O)CN(CC)C(=O)NC12CC3CC(CC(C3)C1)C2

>  <classification>
inactive

$$$$
>  <molecule>
O=C1CSC(c2ccc(Cl)cc2)N1c1ccc(-c2ccc(-n3c(-c4ccccc4)nc4ccccc4c3=O)cc2)cc1 (stereo not drawn)

>  <classification>
inactive

$$$$

Consider the record given below.
# input What call does the record list for C[n+]1cn(CC(=O)c2ccccc2)c(C(N)=O)c1N ?
# output inactive

----------
Tested on: CAKI-1
assayComment: NCI tumour cell line growth inhibition, 48 h
Calls of active or inactive are those of the source. No stated cut-off is given here; in the data, active = GI50 up to about 1.1 µM and inactive = higher.
API: response.call in active, inactive

As a guide, the following entries are already answered.
>  <compound>
Cc1ccc2c(c1)C(=S)N1CSCC1c1nncn1-2 (stereo not drawn)

>  <classification>
inactive

$$$$
>  <compound>
CCn1c2ccc(C(=O)CCCN(C)C)cc2c2cc(C(=O)CCCN(C)C)ccc21

>  <classification>
inactive

$$$$
>  <compound>
CNC(=O)N(C1=NCC(C)S1)c1ccc(C)c(C)c1 (stereo not drawn)

>  <classification>
inactive

$$$$

# input What call does the record list for O=C(/C=C/c1ccccc1)CCC1C(=O)NC(=O)NC1=O ?
# output inactive

# input What call does the record list for O=c1[nH]c(=O)n(C2OC(CO)C(O)C(O)C2O)cc1F (stereo not drawn) ?
# output inactive

# input What call does the record list for CC(C)CCNC(=O)c1ccc(CNC(=O)/C=C/c2ccc(-c3ccccc3[N+](=O)[O-])o2)cc1 ?
# output inactive

# input What call does the record list for O=[N+]([O-])C(/C(Cl)=C(\Cl)Br)=C(/Cl)SCc1ccccc1 ?
# output inactive

# input What call does the record list for O=[N+]([O-])c1ccc2[nH]c(-c3ccc(Cl)cc3)nc2c1 ?
# output inactive

# input What call does the record list for Cc1c(C)c2ccc(OC(C)C(=O)O)cc2oc1=O (stereo not drawn) ?
# output inactive

# input What call does the record list for CCOC(=O)c1c(N2CCCC2)[nH]c(=O)c(C(c2ccc(N(C)C)cc2)c2c(O)c(C(=O)OCC)c(N3CCCC3)[nH]c2=O)c1O ?
# output inactive

# input What call does the record list for COc1ccccc1NC(=O)C1=C(C)NC(C)=C(C(=O)Nc2ccccc2OC)C1c1cccc2c1OCO2 ?
# output inactive

# input What call does the record list for Cn1c(SCc2ccc(F)cc2)nnc1C12CC3CC(CC(C3)C1)C2 ?
# output inactive

# input What call does the record list for CC(=O)N1C(Nc2ccccc2)CCN1c1ccccc1 (stereo not drawn) ?
# output inactive

# input What call does the record list for COC(=O)c1ccccc1C1CN=NC12Cc1c(ccc3c1CCC3)C2=O (stereo not drawn) ?
# output inactive

# input What call does the record list for Nc1nc(Cl)cc(NCCC2(CO)CCC2)n1 ?
# output inactive

# input What call does the record list for O=c1cc(-c2ccccc2)nc(-n2[nH]c3c(c2=O)CCCC3)[nH]1 ?
# output inactive

# input What call does the record list for COC(=O)C1=C(C(=O)OC)C(OO)(c2ccccc2)OC1=O (stereo not drawn) ?
# output inactive

# input What call does the record list for CCOC(=O)/C(C#N)=C(/NNc1ccccc1)c1ccncc1C(=O)O ?
# output inactive

# input What call does the record list for CC1OC(O[C@@H]2OC=C(C=O)[C@@]3(O)CC[C@H](C)[C@@H]23)C(O)C(O)C1O (stereo partly drawn) ?
# output inactive

# input What call does the record list for CC[P+]1(CC)CCCC1 ?
# output inactive
